# test.method.notes: in vitro
# test.settings: human, hela cells, % viability

>  <compound>
Cc1ccc(-n2ncc3c(NCCc4ccc(S(N)(=O)=O)cc4)ncnc32)c(C)c1

>  <unit.symbol>
%

>  <viability at 28.5 h, 10 µM>
92.4

$$$$
>  <compound>
Cc1sc2nc(C(C)N3CCN(Cc4ccco4)CC3)[nH]c(=O)c2c1C (centres unmarked)

>  <unit.symbol>
%

>  <viability at 28.5 h, 10 µM>
93.7

$$$$
>  <compound>
CC(=O)Nc1cccc(-c2cncc(NCc3ccco3)n2)c1

>  <unit.symbol>
%

>  <viability at 28.5 h, 10 µM>
100

$$$$
>  <compound>
O=C(NCc1cccnc1)c1csc2c1CCCC2

>  <unit.symbol>
%

>  <viability at 28.5 h, 10 µM>
86.4

$$$$
>  <compound>
O=C(CN1CCC(c2ccccc2F)CC1)N1CCCC1

>  <unit.symbol>
%

>  <viability at 28.5 h, 10 µM>
98.2

$$$$
>  <compound>
O=C(Nc1cccc2ccccc12)C1CCC(C(=O)Nc2cccc3ccccc23)CC1 (centres unmarked)

>  <unit.symbol>
%

>  <viability at 28.5 h, 10 µM>
81.9

$$$$
>  <compound>
Cc1cc(C)n(CCC(=O)NCC(c2ccccn2)N2CCOCC2)n1 (centres unmarked)

>  <unit.symbol>
%

>  <viability at 28.5 h, 10 µM>
105

$$$$
>  <compound>
CC(=O)NCCSc1nc2ccccc2nc1N1CCCC1

>  <unit.symbol>
%

>  <viability at 28.5 h, 10 µM>
99

$$$$
>  <compound>
CC(C(=O)NC1(C#N)CCCCC1)N1CCOC(Cn2cncn2)C1 (centres unmarked)

>  <unit.symbol>
%

>  <viability at 28.5 h, 10 µM>
101

$$$$
>  <compound>
CCOc1ccc(OCCC#N)cc1

>  <unit.symbol>
%

>  <viability at 28.5 h, 10 µM>
84.7

$$$$
>  <compound>
Cc1cc(NC(=O)c2ccc3c(c2)OCCO3)c2ccccc2n1

>  <unit.symbol>
%

>  <viability at 28.5 h, 10 µM>
103

$$$$
>  <compound>
CCCC/C=C/c1cnc2[nH]c(=O)n(CCCOC)c2n1

>  <unit.symbol>
%

>  <viability at 28.5 h, 10 µM>
109

$$$$
>  <compound>
CC1CCc2sc3ncnc(N4CCN(CCOC(c5ccccc5)c5ccccc5)CC4)c3c2C1 (centres unmarked)

>  <unit.symbol>
%

>  <viability at 28.5 h, 10 µM>
86.6

$$$$
>  <compound>
Cc1ccc(NC(=O)CCSc2nnc3ccccn23)cc1

>  <unit.symbol>
%

>  <viability at 28.5 h, 10 µM>
93.7

$$$$
>  <compound>
CN(Cc1ccccc1)c1nc2c(c(=O)n(C)c(=O)n2C)n1CCSc1ncccn1

>  <unit.symbol>
%

>  <viability at 28.5 h, 10 µM>
97.7

$$$$
>  <compound>
CCCC1=NNC(=O)C1Cc1c(F)cccc1Cl (centres unmarked)

>  <unit.symbol>
%

>  <viability at 28.5 h, 10 µM>
88.8

$$$$
>  <compound>
Cc1nc([N+](=O)[O-])c(N2CCN(Cc3ccccc3)CC2)n1Cc1ccccc1

>  <unit.symbol>
%

>  <viability at 28.5 h, 10 µM>
88.7

$$$$

* * *

# test.method.notes: in vitro
# test.settings: human, hela cells, % viability

>  <molecule>
Cc1[nH]c2ccccc2c1-c1csc(-c2ccncc2)n1

>  <viability at 28.5 h, 10 µM>
96.8%

$$$$
>  <molecule>
O=C(O)CCCC(=O)Nc1ccc(C(=O)O)cc1

>  <viability at 28.5 h, 10 µM>
86.5%

$$$$
>  <molecule>
O=C(CN1C(=O)c2ccc([N+](=O)[O-])cc2C1=O)Nc1cc(Cl)ccc1C(=O)O

>  <viability at 28.5 h, 10 µM>
97.1%

$$$$
>  <molecule>
CSc1nnc(-c2cccc(C)c2)n1CC1CCCCC1

>  <viability at 28.5 h, 10 µM>
100%

$$$$
>  <molecule>
COCCNC(=O)C1CCCN(c2nc3c(-c4ccccc4)csc3c(=O)[nH]2)C1 (stereo not shown)

>  <viability at 28.5 h, 10 µM>
114%

$$$$
>  <molecule>
O=C1c2ccccc2C(=O)N1CCOc1nccnc1-c1ccsc1

>  <viability at 28.5 h, 10 µM>
90.4%

$$$$
>  <molecule>
CN(C)CCN(C)c1cccc(-c2cccc(OC(F)(F)F)c2)n1

>  <viability at 28.5 h, 10 µM>
102%

$$$$
>  <molecule>
N#Cc1ccc(-c2nc3cc(Cl)c(F)cc3[nH]2)cc1

>  <viability at 28.5 h, 10 µM>
90.6%

$$$$
>  <molecule>
Cc1cc(CC(=O)NCc2c(-c3ccccc3)noc2C)on1

>  <viability at 28.5 h, 10 µM>
92.2%

$$$$
>  <molecule>
C#CCn1ncc2c3sc(C)cc3n(CC)c2c1=O

>  <viability at 28.5 h, 10 µM>
89.5%

$$$$

* * *

# test.method.notes: in vitro
# test.settings: human, hela cells, % viability
Listing: viability at 28.5 h, 10 µM of selected compounds

>  <compound>
Cn1cc(-c2ccc(C3CCCCN3Cc3ccnc4ccccc34)cn2)cn1 (stereo not shown)

>  <viability at 28.5 h, 10 µM>
93.3%

$$$$
>  <compound>
Cc1ncsc1CCOc1nccnc1NC(C)C

>  <viability at 28.5 h, 10 µM>
106%

$$$$
>  <compound>
CN(C)CCN(C)c1ccc(/C=C/c2ccccc2)cn1

>  <viability at 28.5 h, 10 µM>
98.4%

$$$$
>  <compound>
O=C(O)/C=C/c1cccc(-c2cn3ccnc3c(N3CCN(c4ccncc4)CC3)n2)c1

>  <viability at 28.5 h, 10 µM>
94.8%

$$$$

* * *

# test.method.notes: in vitro
# test.settings: human, hela cells, % viability
experimental.readout: viability at 28.5 h, 10 µM (%)

>  <molecule>
Cc1ccc2c(c1)C(=O)NCC1(CCN(C(=O)c3ccco3)CC1)O2

>  <unit.symbol>
%

>  <observed>
100

$$$$
>  <molecule>
Cc1c(CN2CCC3(CC2)CC(c2ccccc2)CN(C)C3)cnn1C (stereo not drawn)

>  <unit.symbol>
%

>  <observed>
105

$$$$
>  <molecule>
CNC(=S)NCCc1c[nH]c2ccccc12

>  <unit.symbol>
%

>  <observed>
108

$$$$
>  <molecule>
NC(=O)CO[C@@H]1CO[C@H]2[C@@H]1OC[C@@H]2NCc1ccccc1

>  <unit.symbol>
%

>  <observed>
112

$$$$
>  <molecule>
O=C(CCn1c(C(F)(F)F)cc2cccnc21)NC1CCCC1

>  <unit.symbol>
%

>  <observed>
103

$$$$
>  <molecule>
O=C(NCCOc1ccccc1)c1nccnc1-c1ccc(COc2ccc3c(c2)CCCC3)cc1

>  <unit.symbol>
%

>  <observed>
91.2

$$$$
>  <molecule>
CSCCC(=O)N1CCC2(CCN(C(=O)Cc3c[nH]c4ccccc34)C2)C1 (stereo not drawn)

>  <unit.symbol>
%

>  <observed>
95.3

$$$$
>  <molecule>
CC(=O)NC(N(C)S(=O)(=O)c1ccc(C)cc1)C(Cl)(Cl)Cl (stereo not drawn)

>  <unit.symbol>
%

>  <observed>
93.8

$$$$
>  <molecule>
Cc1ccc(OCCCC(=O)Nc2ccc(C(N)=O)cc2)c(C)c1

>  <unit.symbol>
%

>  <observed>
93.8

$$$$
>  <molecule>
C(#Cc1cccc(-c2nc3ccccc3nc2-c2cccc(C#Cc3ccc(Sc4ccccc4)cc3)c2)c1)c1ccc(Sc2ccccc2)cc1

>  <unit.symbol>
%

>  <observed>
93.2

$$$$
>  <molecule>
COc1ccc(CN(C(=O)CCc2c(C)[nH]c(=O)c(C#N)c2C)C2CC2)cc1

>  <unit.symbol>
%

>  <observed>
97.6

$$$$
>  <molecule>
O=S(=O)(Nc1nnc(Cc2ccc(Cl)cc2)s1)c1ccc(Cl)cc1

>  <unit.symbol>
%

>  <observed>
90.2

$$$$
>  <molecule>
Cc1ccccc1NC(=O)Cn1c(=O)n(CC(=O)Nc2ccccc2C)c2ccccc21

>  <unit.symbol>
%

>  <observed>
101

$$$$
>  <molecule>
Cc1cc(NC(=O)C2CC2)sc1C(=O)NC(C)c1ccc(F)cc1F (stereo not drawn)

>  <unit.symbol>
%

>  <observed>
104

$$$$
>  <molecule>
NC(=O)Cn1cc(C(=O)c2ccncc2)c(=O)c2cc(Cl)ccc21

>  <unit.symbol>
%

>  <observed>
86

$$$$
>  <molecule>
CC(C)NC(=O)[C@H]1O[C@H](CCN2CCN(c3ccccc3)CC2)CC[C@@H]1O

>  <unit.symbol>
%

>  <observed>
123

$$$$
>  <molecule>
Cc1cccn2cc(C(=O)NCCCn3cccn3)nc12

>  <unit.symbol>
%

>  <observed>
75.3

$$$$
>  <molecule>
CC(NS(=O)(=O)c1ccc(OCC(=O)N2CCc3ccccc3C2)c(Cl)c1)c1ccccc1 (stereo not drawn)

>  <unit.symbol>
%

>  <observed>
92

$$$$
>  <molecule>
CN1CCC(N(C)Cc2ccc3c(c2)OCO3)CC1

>  <unit.symbol>
%

>  <observed>
86.8

$$$$
>  <molecule>
N#CCCN(Cc1ccco1)C(=O)c1cccc(NC(=O)C2CC2)c1

>  <unit.symbol>
%

>  <observed>
99.5

$$$$
>  <molecule>
COc1cc(CNc2nccnc2-c2ccco2)cc(OC)c1OC

>  <unit.symbol>
%

>  <observed>
89.9

$$$$
>  <molecule>
CC1CCCN(CC(=O)NCc2ccc(OCC(N)=O)cc2)CC1 (stereo not drawn)

>  <unit.symbol>
%

>  <observed>
92.1

$$$$
>  <molecule>
Cc1noc(C)c1NC(=O)c1nc2ccccc2[nH]1

>  <unit.symbol>
%

>  <observed>
81.5

$$$$
>  <molecule>
O=C1c2cc(S(=O)(=O)NCc3ccco3)ccc2-c2ccc(S(=O)(=O)NCc3ccco3)cc21

>  <unit.symbol>
%

>  <observed>
98.5

$$$$
>  <molecule>
CCCSc1nc2cc(C(=O)OC)ccc2c(=O)n1CC1CCCO1 (stereo not drawn)

>  <unit.symbol>
%

>  <observed>
91

$$$$
>  <molecule>
Cc1ccc(OCC(=O)O/N=C(\N)Cc2ccc([N+](=O)[O-])cc2)c(C)c1

>  <unit.symbol>
%

>  <observed>
101

$$$$
>  <molecule>
CCOC(=O)c1c(NC(=O)c2ccccc2C(=O)O)sc2c1CCCC2

>  <unit.symbol>
%

>  <observed>
113

$$$$
>  <molecule>
NC(=O)c1cccc(-c2cnc(N)c(N3CCC[C@@H]3CO)n2)c1

>  <unit.symbol>
%

>  <observed>
99.5

$$$$
>  <molecule>
CC1(N2CCOCC2)CC2(O)C(=[N+]1[O-])CCc1c2no[n+]1[O-] (stereo not drawn)

>  <unit.symbol>
%

>  <observed>
90.5

$$$$
>  <molecule>
O=c1cc2oc3cc(O)c(O)cc3c(-c3ccc(OCc4cccc([N+](=O)[O-])c4)cc3)c-2cc1O

>  <unit.symbol>
%

>  <observed>
75.3

$$$$
